Please go through the items and note down their FACS (MF).
Biological target: Candida albicans (Cat. No. 10231, ATCC) whole cells (Candida albicans)
Assay: C. albicans FACS, mean FITC fluorescence, Fab; assay background 100
Give your result as the value with the unit written after it.

Incoming: Report FACS (MF) for ID-1-RD4-P2C10 Fab (Fab, V domains shown) VH: EVQLVESGGGLVKAGGSLILSCGVSNFRISAHTMNWVRRVPGGGLEWVASISTSSTYRDYADAVKGRFTVSRDDLEDFVYLQMHKMRVEDTAIYYCARKGSDRLSDNDPFDAWGPGTVVTVSP VL: GVVMTQSPSTLSASVGDTITITCRASQSIETWLAWYQQKPGKAPKLLIYKASTLKTGVPSRFSGSGSGTEFTLTISGLQFDDFATYHCQHYKPFMATFGQGTRVEIKR please.
Outgoing: 10600 MF

Incoming: Which measured FACS (MF) value corresponds to ID-1-RD4-P2G9 Fab (Fab, V domains shown) VH: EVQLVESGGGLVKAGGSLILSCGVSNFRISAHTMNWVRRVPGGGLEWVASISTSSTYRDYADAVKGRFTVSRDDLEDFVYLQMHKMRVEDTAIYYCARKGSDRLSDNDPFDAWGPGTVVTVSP VL: GVVMTQSPSTLSASVGDTITITCRASQSIETWLAWYQQKPGKAPKLLIYKASTLKTGVPSRFSGSGSGTEFTLTISGLQFDDFATYHCQHYQPFDATFGQGTRVEIKR ?
Outgoing: 2350 MF

Incoming: Field request: FACS (MF) | item: ID-2-RD6-P1H10 Fab (Fab, V domains shown) VH: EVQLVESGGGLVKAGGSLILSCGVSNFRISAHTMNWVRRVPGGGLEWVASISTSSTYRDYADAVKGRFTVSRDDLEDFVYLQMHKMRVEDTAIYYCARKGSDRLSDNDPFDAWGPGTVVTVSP VL: GVVMTQSPSTLSASVGDTITITCRASQSIETWLAWYQQKPGKAPKLLIYKASTLKTGVPSRFSGSGSGTEFTLTISGLQFDDFATYHCQHYQPFKATFGQGTRVEIKR
Outgoing: 2190 MF

Incoming: Sample ID-2-RD6-P1H11 Fab (Fab, V domains shown) VH: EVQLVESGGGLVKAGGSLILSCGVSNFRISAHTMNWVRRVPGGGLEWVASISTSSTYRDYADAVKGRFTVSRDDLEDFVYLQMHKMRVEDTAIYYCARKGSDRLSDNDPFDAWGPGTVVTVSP VL: GVVMTQSPSTLSASVGDTITITCRASQSIETWLAWYQQKPGKAPKLLIYKASTLKTGVPSRFSGSGSGTEFTLTISGLQFDDFATYHCQHYMAYDATFGQGTRVEIKR — what was its FACS (MF)?
Outgoing: 3760 MF

All figures here come from patent US20110189183A1.
